Readings of IC50 for the listed compounds
- Assayed system: HDAC2 Human recombinant C-terminal FLAG-tag (Homo sapiens, UniProt Q92769)
- Construct: FLAG (C); purchased BPS Bioscience 50052
- Sequence (Q92769 whole entry): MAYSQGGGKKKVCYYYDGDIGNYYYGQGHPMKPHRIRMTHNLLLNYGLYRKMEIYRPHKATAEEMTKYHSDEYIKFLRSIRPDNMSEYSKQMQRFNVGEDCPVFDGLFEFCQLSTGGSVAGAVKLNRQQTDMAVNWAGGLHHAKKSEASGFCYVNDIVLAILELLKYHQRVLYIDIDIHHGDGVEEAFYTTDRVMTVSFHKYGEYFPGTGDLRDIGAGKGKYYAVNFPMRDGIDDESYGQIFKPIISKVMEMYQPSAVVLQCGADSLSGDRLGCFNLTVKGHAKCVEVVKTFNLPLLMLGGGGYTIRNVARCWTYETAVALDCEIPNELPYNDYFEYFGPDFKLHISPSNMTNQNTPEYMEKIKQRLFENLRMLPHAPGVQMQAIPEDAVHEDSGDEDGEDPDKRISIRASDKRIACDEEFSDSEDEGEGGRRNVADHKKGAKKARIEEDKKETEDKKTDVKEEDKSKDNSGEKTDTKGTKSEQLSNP
- Experiment notes: Measurement of HDAC2 enzyme inhibitory activity (HTRF)
- Assay type: biochemical
- Condition notes: recombinant HDAC2, H3K9ac peptide, 3 hours room temperature; read-out: HDAC2 IC50
Give the number; nM is assumed, so skip it.

Solved cases (4 shown):
* CCOc1cnc(C(=O)Nc2cc(-c3cnn(C)c3)ccc2N)cn1 | 180
* Nc1ccc(-c2ccc(F)nc2)cc1NC(=O)c1ccccn1 | 320
* Cc1cnc(C(=O)Nc2cc(-c3ccc(F)nc3)ccc2N)c(F)c1 | 150
* CN(C)c1ccc(C(=O)Nc2cc(-c3cnn(C)c3)ccc2N)nc1 | 170

Form field IC50 for item CN(Cc1ccccn1)c1cnc(C(=O)Nc2cc(-c3cnn(C)c3)ccc2N)cn1 on HDAC2 Human recombinant C-terminal FLAG-tag (Homo sapiens, UniProt Q92769): 80
